B1: HDV Ribozyme (parent)
chain: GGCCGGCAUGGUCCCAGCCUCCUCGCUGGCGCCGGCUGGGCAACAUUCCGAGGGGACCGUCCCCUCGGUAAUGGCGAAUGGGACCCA

variants of: B1; assay: self-cleavage, relative activity (ratio to wild type); higher = more cleavage; co-transcriptional
Please mark Satisfied if the recorded self-cleavage is equal to or greater than 0.2, and Not satisfied if it falls below.

Solved cases below.
C19A C49U | Not satisfied
G31A A56U | Satisfied
C19A C24A | Not satisfied
G54U C58G | Satisfied
A51G G82C | Satisfied
C30G U79C | Not satisfied

Exam item: API: above_or_equal(metric=self-cleavage, cutoff=0.2) for item C33A G74C
Marked response: Not satisfied

Exam item: Reported self-cleavage at or above 0.2? U12G G80C
Marked response: Not satisfied

Exam item: hey, is self-cleavage for this one >= 0.2? U12G G34A
Marked response: Not satisfied

Exam item: Reported self-cleavage at or above 0.2? C22G C26U
Marked response: Satisfied

Exam item: Determine whether this variant has self-cleavage no lower than 0.2: C41A G59A
Marked response: Satisfied

Exam item: API: above_or_equal(metric=self-cleavage, cutoff=0.2) for item G38C U72C
Marked response: Satisfied

Exam item: Check the entry C26G A43G : does self-cleavage equal or exceed 0.2?
Marked response: Satisfied

Exam item: Could you please find out whether C15A G38A has self-cleavage that meets 0.2 or exceeds it?
Marked response: Not satisfied

Exam item: Could you tell me if the measured self-cleavage of G6A G81C reaches 0.2 or more?
Marked response: Not satisfied

Exam item: Say whether G1C G34C shows self-cleavage of 0.2 or more.
Marked response: Not satisfied

Exam item: # bool: self-cleavage of G39U C84G >= 0.2
Marked response: Satisfied

Exam item: Dear colleague, could you confirm whether C21A A42G has self-cleavage at or above 0.2?
Marked response: Not satisfied

Exam item: Identify whether the reported self-cleavage of the following variant is 0.2 or greater: A43C C57G
Marked response: Satisfied

Exam item: Tell me whether self-cleavage is at least 0.2 here: G1A G5U
Marked response: Not satisfied

Exam item: Threshold query (self-cleavage >= 0.2) on U79A A87G
Marked response: Satisfied

Exam item: Identify whether the reported self-cleavage of the following variant is 0.2 or greater: C4U G29C
Marked response: Not satisfied

Exam item: Could you tell me if the measured self-cleavage of C36G A70G reaches 0.2 or more?
Marked response: Not satisfied
